Tested on: axenic amastigotes of L. donovani, strain MHOM-ET-67/L82
Method: In vitro activity against L. donovani axenic amastigotes, serial drug dilution assay
Type: cell-based, Leishmania donovani
Experimental Parameters: axenic amastigotes, strain MHOM-ET-67/L82; means of two independent assays; read-out: IC50 L. don. axen.
Method: Drug stock solutions (10mg/ml) were in DMSO (100%). […] Selectivity index (SI) was calculated as IC50 L6 cells/IC50 parasite.
Structures can show the parent of a compound that is named as a salt.
Property Measured: IC50 (µM)
# value in µM; strip the unit string

Need IC50, item O=C(N/N=C/c1ccc([N+](=O)[O-])o1)c1ccc(O)cc1 [Nifuroxazide]
2.83

Need IC50, item O=C1CN(/N=C/c2ccc([N+](=O)[O-])o2)C(=O)N1
2.12

Need IC50, item CC(=O)OC[C@H]1O[C@@H]([S-])[C@H](OC(C)=O)[C@@H](OC(C)=O)[C@@H]1OC(C)=O.CCP(CC)CC.[Au+]
0.11

Need IC50, item CCC[C@@]1(CCc2ccccc2)CC(O)=C([C@H](CC)c2cccc(NS(=O)(=O)c3ccc(C(F)(F)F)cn3)c2)C(=O)O1
1.64

Need IC50, item CO[C@H]1/C=C/O[C@@]2(C)Oc3c(C)c(O)c4c(O)c(c(/C=N/N5CCN(C)CC5)c(O)c4c3C2=O)NC(=O)/C(C)=C\C=C\[C@H](C)[C@H](O)[C@@H](C)[C@@H](O)[C@@H](C)[C@H](OC(C)=O)[C@@H]1C
1.53

Need IC50, item CO[C@H]1/C=C/O[C@@]2(C)Oc3c(C)c(O)c4c(O)c(cc(O)c4c3C2=O)NC(=O)/C(C)=C\C=C\[C@H](C)[C@H](O)[C@@H](C)[C@@H](O)[C@@H](C)[C@H](OC(C)=O)[C@@H]1C [Rifamycin SV (Sodium salt), Rifamycin SV]
1.5

Need IC50, item C[C@H]1[C@H](OC(=O)CCC(=O)O)O[C@@H]2O[C@@]3(C)CC[C@H]4[C@H](C)CC[C@@H]1[C@@]24OO3 [Artesunate]
0.35

###

Method: in vitro
Experimental Parameters: rat, IC50 Cytotox. L6
Where a name gives a salt, the structure may show the parent alone.
// reported pIC50 for each item listed
Lab note — pIC50 values are minus log10 of concentrations in M.

Illustrative cases are given below, each with its answer.
Compound	Reported Value
Cc1cccc(C)c1OCC(=O)N[C@@H](Cc1ccccc1)[C@@H](O)C[C@H](Cc1ccccc1)NC(=O)[C@H](C(C)C)N1CCCNC1=O	4.72
CO[C@H]1/C=C/O[C@@]2(C)Oc3c(C)c(O)c4c(O)c(c5c(nc6cc(C)ccn65)c4c3C2=O)NC(=O)/C(C)=C\C=C\[C@H](C)[C@H](O)[C@@H](C)[C@@H](O)[C@@H](C)[C@H](OC(C)=O)[C@@H]1C	4.06
CCC(C)n1ncn(-c2ccc(N3CCN(c4ccc(OCC5COC(Cn6cncn6)(c6ccc(Cl)cc6Cl)O5)cc4)CC3)cc2)c1=O (stereo not drawn)	5.95
N=C(N)c1ccc(OCCCCCOc2ccc(C(=N)N)cc2)cc1	5.05
Cc1cc(C2CCCCC2)n(O)c(=O)c1	5.98

Need pIC50, item Clc1ccc(COC(Cn2ccnc2)c2ccc(Cl)cc2Cl)c(Cl)c1 (stereo not drawn) [Miconazole (Nitrate salt), Miconazole]
4.81

Need pIC50, item OCCN1CCN(CCCN2c3ccccc3Sc3ccc(C(F)(F)F)cc32)CC1
4.94

Need pIC50, item O=C(O)c1nn(Cc2ccc(Cl)cc2Cl)c2ccccc12
3.56

Need pIC50, item CO[C@H]1/C=C/O[C@@]2(C)Oc3c(C)c(O)c4c(O)c(cc(O)c4c3C2=O)NC(=O)/C(C)=C\C=C\[C@H](C)[C@H](O)[C@@H](C)[C@@H](O)[C@@H](C)[C@H](OC(C)=O)[C@@H]1C [Rifamycin SV (Sodium salt), Rifamycin SV]
4.80

Need pIC50, item C[C@H]1[C@H](OC(=O)CCC(=O)O)O[C@@H]2O[C@@]3(C)CC[C@H]4[C@H](C)CC[C@@H]1[C@@]24OO3 [Artesunate]
6.11

Need pIC50, item CCN(CCCCOC(=O)c1ccc(OC)c(OC)c1)C(C)Cc1ccc(OC)cc1 (stereo not drawn)
4.15

Need pIC50, item NC(=O)c1cnccn1 [Pyrazinamide]
3.34

Need pIC50, item C[C@@H](c1ncncc1F)[C@](O)(Cn1cncn1)c1ccc(F)cc1F
3.71

Need pIC50, item c1ccc(-c2ccc(C(c3ccccc3)n3ccnc3)cc2)cc1 (stereo not drawn)
4.41

Need pIC50, item O=C(Nc1ccc([N+](=O)[O-])cc1Cl)c1cc(Cl)ccc1O [Niclosamide]
5.64

###

Method: in vitro
Experimental Parameters: rat, Cytotox. L6 IC50
Property Measured: log10 of IC50 (log10 of the value in µM)
Quick note: numbers are log10 of IC50, with µM as the unit.

Illustrative cases are given below, each with its answer.
Compound	Property Measured	Reported Value
Cc1c(C)c2c(c(C)c1O)CCC(C)(COc1ccc(CC3SC(=O)NC3=O)cc1)O2 (centres unmarked)	log10 of IC50	1.91
C#C[C@]1(O)CC[C@H]2[C@@H]3CCC4=Cc5oncc5C[C@]4(C)[C@H]3CC[C@@]21C	log10 of IC50	1.51
CO[C@H]1/C=C/O[C@@]2(C)Oc3c(C)c(O)c4c(c3C2=O)C2=NC3(CCN(CC(C)C)CC3)NC2=C(NC(=O)/C(C)=C\C=C\[C@H](C)[C@H](O)[C@@H](C)[C@@H](O)[C@@H](C)[C@H](OC(C)=O)[C@@H]1C)C4=O	log10 of IC50	1.78
O=C(O)c1cn(C2CC2)c2cc(N3CCNCC3)c(F)cc2c1=O	log10 of IC50	2.07
C[C@H]1c2cccc(O)c2C(=O)C2=C(O)[C@]3(O)C(=O)C(C(N)=O)=C(O)[C@@H](N(C)C)[C@@H]3[C@@H](O)[C@@H]21	log10 of IC50	1.16

Need log10 of IC50, item CC(C)/N=c1\cc2n(-c3ccc(Cl)cc3)c3ccccc3nc-2cc1Nc1ccc(Cl)cc1
1.00

Need log10 of IC50, item CCn1cc(C(=O)O)c(=O)c2cc(F)c(N3CCNCC3)nc21
1.40

###

// reported pIC50 for each item listed
System: T. cruzi, strain Tulahuen C4, intracellular amastigotes
Method: microbe, parasite or virus in culture
Experimental Parameters: Trypanosoma cruzi, TULAHUEN, read-out: IC50 T. cruzi
Lab note — pIC50 values are minus log10 of concentrations in M.

Compound	pIC50
CC(C)c1nc(CN(C)C(=O)N[C@H](C(=O)N[C@@H](Cc2ccccc2)C[C@H](O)[C@H](Cc2ccccc2)NC(=O)OCc2cncs2)C(C)C)cs1 [Ritonavir]	4.68
CCc1nc(N)nc(N)c1-c1ccc(Cl)cc1 [Pyrimethamine]	5.24
COc1cc(C)c2c(Oc3cccc(C(F)(F)F)c3)c(OC)cc(NC(C)CCCN)c2n1 (stereo not drawn) [Tafenoquine]	5.21

Request: pIC50, test system T. cruzi, strain Tulahuen C4, intracellular amastigotes, entry Fc1ccc([C@@H]2CCNC[C@H]2COc2ccc3c(c2)OCO3)cc1 [Paroxetine]
4.84

Request: pIC50, test system T. cruzi, strain Tulahuen C4, intracellular amastigotes, entry CN1CCC(=C2c3ccccc3CCc3sccc32)CC1 [Pizotifen]
4.51

Request: pIC50, test system T. cruzi, strain Tulahuen C4, intracellular amastigotes, entry CC(N)C12CC3CC(CC(C3)C1)C2 (stereo not drawn) [Rimantadine]
3.49

Request: pIC50, test system T. cruzi, strain Tulahuen C4, intracellular amastigotes, entry Cn1c([N+](=O)[O-])cnc1N1CCN(S(C)(=O)=O)C1=O [Satranidazole]
4.72

Request: pIC50, test system T. cruzi, strain Tulahuen C4, intracellular amastigotes, entry COc1ccc2[nH]c([S+]([O-])Cc3ncc(C)c(OC)c3C)nc2c1 (stereo not drawn) [Omeprazole]
4.17

Request: pIC50, test system T. cruzi, strain Tulahuen C4, intracellular amastigotes, entry OC(Cn1cncn1)(Cn1cncn1)c1ccc(F)cc1F [Fluconazole]
5.00

Request: pIC50, test system T. cruzi, strain Tulahuen C4, intracellular amastigotes, entry O=C(Cn1ccnc1[N+](=O)[O-])NCc1ccccc1 [Benznidazole]
5.70

Request: pIC50, test system T. cruzi, strain Tulahuen C4, intracellular amastigotes, entry C[C@H]1[C@H](OC(=O)CCC(=O)O)O[C@@H]2O[C@@]3(C)CC[C@H]4[C@H](C)CC[C@@H]1[C@@]24OO3 [Artesunate]
5.05

Request: pIC50, test system T. cruzi, strain Tulahuen C4, intracellular amastigotes, entry OCCN(CCO)c1nc(N2CCCCC2)c2nc(N(CCO)CCO)nc(N3CCCCC3)c2n1 [Dipyridamole]
4.53

Request: pIC50, test system T. cruzi, strain Tulahuen C4, intracellular amastigotes, entry CC[C@H]1OC(=O)[C@H](C)[C@@H](O[C@H]2C[C@@](C)(OC)[C@@H](O)[C@H](C)O2)[C@H](C)[C@@H](O[C@@H]2O[C@H](C)C[C@H](N(C)C)[C@H]2O)[C@](C)(O)C[C@@H](C)C(=O)[C@H](C)[C@@H](O)[C@]1(C)O [Erythromycine (Hydrate), Erythromycine]
3.94

This collection of values is drawn from paper PMC4535766.
